system: M14; test: NCI tumour cell line growth inhibition, 48 h
Activity calls are given as the source filed them. Rule as the data show it: active = GI50 up to about 1.1 µM and inactive = higher.
measurement-label: GI50

Fill in reported GI50 for this entry: COC(=O)c1c/c(=N\NC(=O)CC(=O)Nc2ccc(C)cc2)c2ccccc2o1 > 100 µM (inactive)

Fill in reported GI50 for this entry: O=C(Nc1noc(-c2ccccc2)n1)c1ccccc1CNc1noc(-c2ccccc2)n1 > 100 µM (inactive)

Fill in reported GI50 for this entry: CN1CCN(CCNc2ccc(CO)c3sc4ccccc4c(=O)c23)CC1 14.1 µM (inactive)

Fill in reported GI50 for this entry: CN(C)S(=O)(=O)n1cnc(CO)c1 > 100 µM (inactive)

Fill in reported GI50 for this entry: CN(C)Cc1cc(/C=C/C(=O)c2ccc(Cl)c(Cl)c2)cc(CN(C)C)c1O 13 µM (inactive)

Fill in reported GI50 for this entry: O=C(Cn1c(C(=O)/C=C/c2cccs2)nc2ccccc21)c1ccc(Cl)cc1 18.6 µM (inactive)

----------
system: BT-549; assay: NCI tumour cell line growth inhibition, 48 h
Active and inactive are the calls of the source. Rule as the data show it: active = GI50 up to about 1.1 µM and inactive = higher.
measurement-label: GI50

With BT-549 as the test system, provide measured GI50 for this molecule: CN(C)CCNC1=C(Cl)C(=O)c2c(O)ccc(O)c2C1=O 1.72 µM (inactive)

With BT-549 as the test system, provide measured GI50 for this molecule: O=C(NO)c1ccc(OCc2cccc(Cl)c2)cc1 13.7 µM (inactive)

With BT-549 as the test system, provide measured GI50 for this molecule: O=C(c1ccc(Cl)cc1)C(O)c1ccc(Cl)cc1 (stereo not given) 53.8 µM (inactive)

With BT-549 as the test system, provide measured GI50 for this molecule: CCc1c[n+]2c(cc1C1=CN3c4ccccc4[C@]45CCN6C/C(=C/CO)[C@H](C[C@H]64)[C@@H]([C@@H]1O)[C@H]35)-c1[nH]c3ccccc3c1CC2 > 50 µM (inactive)

With BT-549 as the test system, provide measured GI50 for this molecule: CCC/C(C)=N/NC(=S)SC.CCC/C(C)=N/NC(=S)SC.[Zn+2] 10.6 µM (inactive)

With BT-549 as the test system, provide measured GI50 for this molecule: Cn1cc(S(=O)(=O)NC(=O)Nc2ccc(Cl)cc2)c(=O)c2ccc(Cl)cc21 43.8 µM (inactive)

With BT-549 as the test system, provide measured GI50 for this molecule: CC(=O)O[C@H]1CC[C@@]2(C)[C@@H](CC[C@@H]3[C@@H]2CC(=O)[C@@]2(C)[C@H]3C[C@@H]3CC(C)=CC(=O)[C@@H]32)C1 28.3 µM (inactive)

With BT-549 as the test system, provide measured GI50 for this molecule: C/C(=C/C(=O)N(C)c1ccccc1Cl)O[Si](C(C)C)(C(C)C)C(C)C 22.5 µM (inactive)

With BT-549 as the test system, provide measured GI50 for this molecule: CCOC1CN=C(Nc2cccc3ccccc23)S1 (stereo not given) > 10 µM (inactive)

With BT-549 as the test system, provide measured GI50 for this molecule: O=c1[nH]c(=S)[nH]c(-c2ccccc2)c1Cc1c(O)ccc2ccccc12 27.1 µM (inactive)

With BT-549 as the test system, provide measured GI50 for this molecule: CCOC(=O)c1c(N)sc2c1CC(C)CC2 (stereo not given) 54.2 µM (inactive)

With BT-549 as the test system, provide measured GI50 for this molecule: Cc1nc2c(=O)n(C)ncc2[nH]1 > 100 µM (inactive)

With BT-549 as the test system, provide measured GI50 for this molecule: CNc1nc2n(CCO)c(-c3ccccc3)c(-c3ccccc3)nc-2c(=O)n1 > 50 µM (inactive)

With BT-549 as the test system, provide measured GI50 for this molecule: COC(=O)c1cc(/C=C2\Cc3cc4c(cc3C2=O)CCC4)cc2c1CCC2 > 100 µM (inactive)

With BT-549 as the test system, provide measured GI50 for this molecule: CCOC(=O)NC(Nc1c(F)c(F)c(F)c(F)c1F)(C(F)(F)F)C(F)(F)F > 100 µM (inactive)

With BT-549 as the test system, provide measured GI50 for this molecule: CSCCC(NC(=O)Cc1ccc(C(=O)c2ccccc2)cc1)C(=O)O (stereo not given) > 100 µM (inactive)

With BT-549 as the test system, provide measured GI50 for this molecule: CCSc1n/c(=C\c2ccco2)c2nnnn12 > 100 µM (inactive)

With BT-549 as the test system, provide measured GI50 for this molecule: CCOC(=O)c1sc2nc(SC)nc3c2c1NCN3C1CC1 > 100 µM (inactive)

With BT-549 as the test system, provide measured GI50 for this molecule: CCCNC1=Nc2ccccc2N(Cc2ccccc2)CC1 15.5 µM (inactive)

With BT-549 as the test system, provide measured GI50 for this molecule: O=c1[nH]c(=O)n(C2CC(O)C(CO)O2)cc1OCCCc1ccccc1 (stereo not given) > 100 µM (inactive)

With BT-549 as the test system, provide measured GI50 for this molecule: Cc1ncc([N+](=O)[O-])n1CCNS(=O)(=O)CCCn1ncnc1[N+](=O)[O-] > 100 µM (inactive)

With BT-549 as the test system, provide measured GI50 for this molecule: CCN(CC)C1CCC(C2c3cc4c(cc3OC(N3CCOCC3)C2C)OCO4)CC1 (stereo not given) 16.9 µM (inactive)

With BT-549 as the test system, provide measured GI50 for this molecule: Cc1c2ccccc2c(C)n2c1nc1ccccc12 15.1 µM (inactive)

With BT-549 as the test system, provide measured GI50 for this molecule: O=C1c2ccccc2S(=O)(=O)c2cc(-c3nn[nH]n3)ccc21 > 100 µM (inactive)

With BT-549 as the test system, provide measured GI50 for this molecule: CC(=O)Oc1ccc(-c2cc3ccccc3oc2=O)cc1 > 100 µM (inactive)

With BT-549 as the test system, provide measured GI50 for this molecule: CC(C)(C)OC(=O)NC(Cc1ccc(OCc2ccccc2)cn1)C(=O)O (stereo not given) > 100 µM (inactive)

With BT-549 as the test system, provide measured GI50 for this molecule: CC1=Nc2sc3c(c2C2=NCCN12)CCCC3 19.1 µM (inactive)

With BT-549 as the test system, provide measured GI50 for this molecule: O=C1CC(C(OCc2ccccc2)C(OCc2ccccc2)C(COCc2ccccc2)OCc2ccccc2)CC(=O)N1 (stereo not given) > 100 µM (inactive)

With BT-549 as the test system, provide measured GI50 for this molecule: CNC(C#N)c1ccc(OC)cc1 (stereo not given) > 100 µM (inactive)

With BT-549 as the test system, provide measured GI50 for this molecule: COc1ccc(CNC(C)C(=O)O)cc1 (stereo not given) > 100 µM (inactive)
